These measurements were taken from paper PMC3639963.

biological target: ALK3 (Homo sapiens, UniProt P36894); construct: SGC in-house recombinant human kinases (DSF panel); Invitrogen (ALK1-6); test: In vitro kinase assay ([γ-32P]ATP); details: at the Km value of ATP; triplicate
Sequence (P36894 24-532): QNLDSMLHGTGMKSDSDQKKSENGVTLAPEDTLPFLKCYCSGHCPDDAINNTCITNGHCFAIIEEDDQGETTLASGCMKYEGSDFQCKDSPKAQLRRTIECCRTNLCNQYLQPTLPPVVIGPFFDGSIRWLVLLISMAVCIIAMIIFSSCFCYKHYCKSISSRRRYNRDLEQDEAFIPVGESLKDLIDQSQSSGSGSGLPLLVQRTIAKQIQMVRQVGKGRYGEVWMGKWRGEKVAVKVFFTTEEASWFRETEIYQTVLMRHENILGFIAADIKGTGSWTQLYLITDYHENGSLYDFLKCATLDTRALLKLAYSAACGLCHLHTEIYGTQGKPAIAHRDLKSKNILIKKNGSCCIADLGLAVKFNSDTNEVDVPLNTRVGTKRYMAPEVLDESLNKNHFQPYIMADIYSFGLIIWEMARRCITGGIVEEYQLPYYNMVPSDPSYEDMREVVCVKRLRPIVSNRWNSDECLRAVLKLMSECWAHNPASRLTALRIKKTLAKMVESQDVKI
metric-name: IC50 (nM)

>>> data_value("COc1cc(-c2cc(-c3cccc(O)c3)cnc2N)cc(OC)c1OC")
34.4

====

target: ActRIIA (ACVR2) (Homo sapiens)
Sequence (P27037 20-513): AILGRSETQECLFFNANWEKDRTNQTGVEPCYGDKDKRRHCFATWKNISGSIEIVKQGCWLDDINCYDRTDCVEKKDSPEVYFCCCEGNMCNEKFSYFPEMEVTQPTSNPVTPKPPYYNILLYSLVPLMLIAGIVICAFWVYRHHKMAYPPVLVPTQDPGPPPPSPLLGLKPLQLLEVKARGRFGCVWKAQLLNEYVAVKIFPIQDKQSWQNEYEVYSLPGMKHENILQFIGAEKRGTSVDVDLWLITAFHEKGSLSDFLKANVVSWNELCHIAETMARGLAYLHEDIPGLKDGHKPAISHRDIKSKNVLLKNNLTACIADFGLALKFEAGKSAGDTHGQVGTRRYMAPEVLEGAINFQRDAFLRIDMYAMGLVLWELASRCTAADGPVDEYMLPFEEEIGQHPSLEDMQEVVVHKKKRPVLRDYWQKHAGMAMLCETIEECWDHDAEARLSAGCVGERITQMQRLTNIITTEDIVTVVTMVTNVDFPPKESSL
metric-name: IC50 (nM)

>>> data_value("c1ccc2c(-c3cnn4cc(-c5ccc(N6CCNCC6)cc5)cnc34)ccnc2c1")
210

====

system: BMP6-induced Smad1/5/8 phosphorylation in C2C12 cells; assay: BMP6-induced Smad1/5/8 phosphorylation, Western blot; format: cell-based; settings: Mus musculus, read-out: IC50 against BMP6 signaling
metric-name: IC50

>>> data_value("COc1cc(-c2cc(-c3cccc(O)c3)cnc2N)cc(OC)c1OC")
"< 50 nM"
